Test system: Tetrahymena pyriformis
Assay: 48 h IGC50 (-log10 mol/L); higher = more toxic
Measurement kind: 48 h IGC50 (-log10 mol/L)
A bare number is all that is needed in reply.

// solved cases for 48 h IGC50 (-log10 mol/L) follow
NCc1ccccc1	2.76
COCCN	1.21
O=C(O)CCCCl	2.32
C=CC(C)O (stereo unspecified)	1.95
CCN(CC)CCO	1.5
Clc1nc(Cl)c(Cl)c(Cl)c1Cl	4.71

Shift focus to the following entry.
Request: Look up 48 h IGC50 (-log10 mol/L) of O=Cc1cc(Cl)cc(Cl)c1O and report it.
Response: 4.55

These data points were gathered from EPA's aquatic toxicity sets.
